Taken from paper PMC5944358.

Molecular target: HIV-1 YU2 gp120 (HIV-1 YU2, UniProt P35961 32-498)
Assay: SPR
TEST READOUT: k-2 (step 2, reverse) (s⁻¹)
Give bare numbers, in s⁻¹.

MVN_Q81K (natural protein) MPNFSHTCSSINYDPDSTILSAECQARDGEWLPTELRLSDHIGNIDGELQFGDQNFQETCQDCHLEFGDGEQSVWLVCTCKTMDGEWKSTQILLDSQIDNNDSQLEIG | 0.0023
MVN_Q81K/M83R/G85Q (natural protein) MPNFSHTCSSINYDPDSTILSAECQARDGEWLPTELRLSDHIGNIDGELQFGDQNFQETCQDCHLEFGDGEQSVWLVCTCKTRDQEWKSTQILLDSQIDNNDSQLEIG | 0.0041
MVN_G43E/M83R (natural protein) MPNFSHTCSSINYDPDSTILSAECQARDGEWLPTELRLSDHIENIDGELQFGDQNFQETCQDCHLEFGDGEQSVWLVCTCQTRDGEWKSTQILLDSQIDNNDSQLEIG | 0.0023
MVN_G43E (natural protein) MPNFSHTCSSINYDPDSTILSAECQARDGEWLPTELRLSDHIENIDGELQFGDQNFQETCQDCHLEFGDGEQSVWLVCTCQTMDGEWKSTQILLDSQIDNNDSQLEIG | 0.0025
MVN_G85Q (natural protein) MPNFSHTCSSINYDPDSTILSAECQARDGEWLPTELRLSDHIGNIDGELQFGDQNFQETCQDCHLEFGDGEQSVWLVCTCQTMDQEWKSTQILLDSQIDNNDSQLEIG | 0.0027

List the reported k-2 (step 2, reverse) of each binder below.
1. MVN_G43E/Q81K/M83R/G85Q (natural protein) MPNFSHTCSSINYDPDSTILSAECQARDGEWLPTELRLSDHIENIDGELQFGDQNFQETCQDCHLEFGDGEQSVWLVCTCKTRDQEWKSTQILLDSQIDNNDSQLEIG
2. MVN_Q81K/G85Q (natural protein) MPNFSHTCSSINYDPDSTILSAECQARDGEWLPTELRLSDHIGNIDGELQFGDQNFQETCQDCHLEFGDGEQSVWLVCTCKTMDQEWKSTQILLDSQIDNNDSQLEIG

Result:
0.002
0.00178
